Numbers sourced from patent US20240190874A1.

Molecular target: AR (Homo sapiens)
Construct: Degradation of AR; Cellular potency; host or cells: VCaP cells
Assay: Degradation of AR in VCaP cells
Type: cell-based
Details: VCaP cells
Method: Biological Assays. LNCaP and VCaP cells used were purchased from American Type Culture Collection (ATCC). LNCaP were grown in RPMI 1640 (Invitrogen) and VCaP cells were grown in DMEM with Glutamax (Invitrogen). All of the cells were supplemented with 10% fetal bovine serum (Invitrogen) at 37° C. in a humidified 5% CO2 incubator.
endpoint.name: DC50

Worked cases, DC50 given:
Fill blank: measured DC50 of the compound C[C@H]1CC2(CCN(c3cnc(N4CCN(CC5CN(c6ccc7c(c6)C(=O)N(C6CCC(=O)NC6=O)C7=O)C5)CC4)cn3)CC2)CN1c1ccc(C#N)c(Cl)c1 (stereo partly drawn) is ____.
< 1 nM

Dear colleague, I am looking for the recorded DC50 of the following compound: C[C@H]1CC2(CCN(c3ccc(CN4CCN(C5CN(c6ccc7c(c6)C(=O)N(C6CCC(=O)NC6=O)C7=O)C5)CC4)cc3)CC2)CN1c1ccc(C#N)c(Cl)c1 (stereo partly drawn) [compound 6]
< 1 nM

Fill in the blank: the reported DC50 of C[C@H]1CC2(CCN(c3ccc(OC4CN(C5CN(c6ccc7c(c6)C(=O)N(C6CCC(=O)NC6=O)C7=O)C5)C4)nn3)CC2)CN1c1ccc(C#N)c(Cl)c1 (stereo partly drawn) is ____.
< 100 nM

Name the reported DC50 value associated with the compound C[C@H]1CC2(CCN(c3ccc(N4CCN(C5CN(c6ccc7c(c6)C(=O)N(C6CCC(=O)NC6=O)C7=O)C5)CC4)cc3)CC2)CN1c1ccc(C#N)c(Cl)c1 (stereo partly drawn)
< 1 nM

For the compound C[C@H]1CC2(CCN(c3ccc(CN4CCN(C5CN(c6ccc7c(c6)C(=O)N(C6CCC(=O)NC6=O)C7=O)C5)CC4)c(F)c3)CC2)CN1c1ccc(C#N)c(Cl)c1 (stereo partly drawn) [compound 8] , what DC50 is on record?
< 10 nM

Entry C[C@H]1CC2(CCN(c3ccc(N4CCC(NC5CN(c6ccc7c(c6)C(=O)N(C6CCC(=O)NC6=O)C7=O)C5)CC4)cc3)CC2)CN1c1ccc(C#N)c(Cl)c1 (stereo partly drawn) : reported DC50 = ?
< 1 nM

Entry under review: C[C@H]1CC2(CCN(c3cnc(CN4CCN(C5CN(c6ccc7c(c6)C(=O)N(C6CCC(=O)NC6=O)C7=O)C5)CC4)cn3)CC2)CN1c1ccc(C#N)c(Cl)c1 (stereo partly drawn) . Reported DC50?
< 1 nM

Requested field: DC50. Item: C[C@H]1CC2(CCN(c3ccc(N4CCN(C5CN(c6ccc7c(c6)C(=O)N(C6CCC(=O)NC6=O)C7=O)C5)CC4)nc3)CC2)CN1c1ccc(C#N)c(Cl)c1 (stereo partly drawn)
< 1 nM

Give its DC50 value. Item: C[C@H]1CC2(CCN(c3ccc(N4CCN(CC5(F)CN(c6ccc7c(c6)C(=O)N(C6CCC(=O)NC6=O)C7=O)C5)CC4)cn3)CC2)CN1c1ccc(C#N)c(Cl)c1 (stereo partly drawn)
< 1 nM

Any idea what its DC50 is? The compound is C[C@H]1CC2(CCN(c3ccc(CN4CCC(N5Cc6cc7c(cc6C5)C(=O)N(C5CCC(=O)NC5=O)C7=O)CC4)cc3)CC2)CN1c1ccc(C#N)c(Cl)c1 (stereo partly drawn)
< 100 nM

***
Request the reported DC50 associated with C[C@H]1CC2(CCN(c3ccc(CN4CCC(N5CCN(c6ccc7c(c6)C(=O)N(C6CCC(=O)NC6=O)C7=O)CC5)CC4)cn3)CC2)CN1c1ccc(C#N)c(Cl)c1 (stereo partly drawn)
< 10 nM

For the compound C[C@H]1CC2(CCN(c3ccc(CN4CCC(N5CCN(c6ccc7c(c6)C(=O)N(C6CCC(=O)NC6=O)C7=O)CC5)CC4)nn3)CC2)CN1c1ccc(C#N)c(Cl)c1 (stereo partly drawn) , what DC50 is on record?
< 1 nM

====

Target: AR (Homo sapiens)
Construct: Degradation of AR; Cellular potency; host or cells: VCaP cells
Test: Degradation of AR in VCaP cells
Type: cell-based
Details: VCaP cells
Catalogue of DC50 readings, one per entry.

Return DC50 measured with AR (Homo sapiens) given this molecule: C[C@H]1CC2(CCN(c3ccc(N4CCC(CN5Cc6cc7c(cc6C5)C(=O)N(C5CCC(=O)NC5=O)C7=O)CC4)nn3)CC2)CN1c1ccc(C#N)c(Cl)c1 (some centres unmarked)
< 10 nM

Provide the documented DC50 with AR (Homo sapiens) as the system for C[C@H]1CC2(CCN(c3ccc(C4CCN(C5CN(c6ccc7c(c6)C(=O)N(C6CCC(=O)NC6=O)C7=O)C5)CC4)cc3)CC2)CN1c1ccc(C#N)c(Cl)c1 (some centres unmarked)
< 100 nM

Write down the reported DC50 of C[C@H]1CC2(CCN(c3ccc(N4CCN(C5CN(c6ccc7c(c6)C(=O)N(C6CCC(=O)NC6=O)C7=O)C5)CC4)cn3)CC2)CN1c1ccc(C#N)c(Cl)c1 (some centres unmarked) , test system: AR (Homo sapiens).
< 10 nM

Field: next molecule
Enter reported DC50 observed with AR (Homo sapiens) for C[C@H]1CC2(CCN(c3ccc(C(=O)N4CCC(N5Cc6cc7c(cc6C5)C(=O)N(C5CCC(=O)NC5=O)C7=O)CC4)s3)CC2)CN1c1ccc(C#N)c(Cl)c1 (some centres unmarked)
< 10 nM

====

Tested on: VCaP cells
Test: Cellular potency (IC50) in VCaP cells
Format: cell-based
Details: Homo sapiens, VCaP
endpoint.name: IC50

Sample records with IC50:
Requested read-out: IC50. Entry: C[C@H]1CC2(CCN(c3ccc(OC4CN(C5CN(c6ccc7c(c6)C(=O)N(C6CCC(=O)NC6=O)C7=O)C5)C4)nc3)CC2)CN1c1ccc(C#N)c(Cl)c1 (stereo partly drawn)
< 1000 nM

Query (molecule): C[C@H]1CC2(CCN(c3cnc(CN4CCN(C5CN(c6cc7c(cc6F)C(=O)N(C6CCC(=O)NC6=O)C7=O)C5)CC4)nc3)CC2)CN1c1ccc(C#N)c(Cl)c1 (stereo partly drawn) ; field requested: IC50
< 10 nM

Tell me the measured IC50 of C[C@H]1CC2(CCN(c3ccc(N4CCC(CN5Cc6cc7c(cc6C5)C(=O)N(C5CCC(=O)NC5=O)C7=O)CC4)nc3)CC2)CN1c1ccc(C#N)c(Cl)c1 (stereo partly drawn) , please.
< 100 nM

Value lookup for IC50; key = C[C@H]1CC2(CCN(c3ccc(CN4CCC(N5CCN(c6ccc7c(c6)C(=O)N(C6CCC(=O)NC6=O)C7=O)CC5)CC4)nn3)CC2)CN1c1ccc(C#N)c(Cl)c1 (stereo partly drawn)
< 10 nM

Next:
So what does the record say about IC50 for C[C@H]1CC2(CCN(c3ccc(N4CCC(CN5Cc6cc7c(cc6C5)C(=O)N(C5CCC(=O)NC5=O)C7=O)CC4)nn3)CC2)CN1c1ccc(C#N)c(Cl)c1 (stereo partly drawn) ?
< 100 nM

I would be grateful if you could share the reported IC50 for C[C@H]1CC2(CCN(c3ccc(S(=O)(=O)N4CCC(CN5Cc6cc7c(cc6C5)C(=O)N(C5CCC(=O)NC5=O)C7=O)CC4)cc3)CC2)CN1c1ccc(C#N)c(Cl)c1 (stereo partly drawn) .
< 10 nM

Name the recorded IC50 for C[C@H]1CC2(CCN(c3ccc(CN4CCC(C5CN(c6ccc7c(c6)C(=O)N(C6CCC(=O)NC6=O)C7=O)C5)CC4)cn3)CC2)CN1c1ccc(C#N)c(Cl)c1 (stereo partly drawn) .
< 10 nM

Which IC50 is reported for this molecule? C[C@H]1CC2(CCN(c3ccc(N4CCC(CN5CCN(c6ccc7c(c6)C(=O)N(C6CCC(=O)NC6=O)C7=O)CC5)CC4)nn3)CC2)CN1c1ccc(C#N)c(Cl)c1 (stereo partly drawn)
< 100 nM

Requested field: IC50. Item: C[C@H]1CC2(CCN(c3ccc(CN4CCN(C5CN(c6ccc7c(c6)C(=O)N(C6CCC(=O)NC6=O)C7=O)C5)CC4)c(F)c3)CC2)CN1c1ccc(C#N)c(Cl)c1 (stereo partly drawn)
< 100 nM

====

Target: AR (Homo sapiens)
Construct: Degradation of AR; Cellular potency; host or cells: VCaP cells
Sequence (P10275 1-920): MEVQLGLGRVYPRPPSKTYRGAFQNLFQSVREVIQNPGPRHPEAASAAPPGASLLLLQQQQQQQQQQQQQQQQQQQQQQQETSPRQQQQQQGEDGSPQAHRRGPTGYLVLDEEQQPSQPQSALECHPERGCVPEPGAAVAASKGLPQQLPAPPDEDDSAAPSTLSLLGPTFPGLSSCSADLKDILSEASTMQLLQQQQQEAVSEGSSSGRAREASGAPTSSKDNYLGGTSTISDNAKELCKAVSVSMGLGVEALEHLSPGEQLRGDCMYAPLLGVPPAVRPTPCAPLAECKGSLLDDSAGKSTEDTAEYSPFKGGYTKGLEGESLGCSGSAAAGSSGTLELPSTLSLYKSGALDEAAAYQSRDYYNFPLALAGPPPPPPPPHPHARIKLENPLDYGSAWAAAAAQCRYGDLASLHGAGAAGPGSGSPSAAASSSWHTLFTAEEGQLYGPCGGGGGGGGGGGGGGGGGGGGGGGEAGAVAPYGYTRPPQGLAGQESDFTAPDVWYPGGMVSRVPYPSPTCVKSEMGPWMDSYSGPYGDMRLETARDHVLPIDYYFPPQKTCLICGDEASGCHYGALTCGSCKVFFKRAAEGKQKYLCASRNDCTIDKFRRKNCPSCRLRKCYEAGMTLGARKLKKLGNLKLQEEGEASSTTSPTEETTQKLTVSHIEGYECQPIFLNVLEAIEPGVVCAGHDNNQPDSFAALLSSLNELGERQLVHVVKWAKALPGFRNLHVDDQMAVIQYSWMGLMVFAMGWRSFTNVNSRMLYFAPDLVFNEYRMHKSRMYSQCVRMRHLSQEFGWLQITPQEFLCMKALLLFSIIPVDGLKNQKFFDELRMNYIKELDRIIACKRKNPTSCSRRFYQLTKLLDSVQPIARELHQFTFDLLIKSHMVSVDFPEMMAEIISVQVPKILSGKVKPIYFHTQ
Experiment: Degradation of AR in VCaP cells
Type: cell-based
Conditions: VCaP cells
endpoint.name: DC50

// below: answered compounds
Query DC50 on AR (Homo sapiens) for C[C@H]1CC2(CCN(c3ccc(N4CCC(CN5CCN(c6ccc7c(c6)C(=O)N(C6CCC(=O)NC6=O)C7=O)CC5)CC4)nc3)CC2)CN1c1ccc(C#N)c(Cl)c1 (stereo partly drawn)
< 10 nM

Field: DC50 (AR (Homo sapiens)). Entry: C[C@H]1CC2(CCN(c3ccc(N4CCC(CN5Cc6cc7c(cc6C5)C(=O)N(C5CCC(=O)NC5=O)C7=O)CC4)cn3)CC2)CN1c1ccc(C#N)c(Cl)c1 (stereo partly drawn)
< 10 nM

Form: Entry = C[C@H]1CC2(CCN(c3ccc(S(=O)(=O)C4CCN(CC5CCN(c6ccc7c(c6)C(=O)N(C6CCC(=O)NC6=O)C7=O)CC5)CC4)cc3)CC2)CN1c1ccc(C#N)c(Cl)c1 (stereo partly drawn) | System = AR (Homo sapiens) | DC50 = ____
< 1 nM

// fetch AR (Homo sapiens) DC50 for C[C@H]1CC2(CCN(c3ccc(C(=O)N4CCC(C(=O)CN5Cc6cc7c(cc6C5)C(=O)N(C5CCC(=O)NC5=O)C7=O)CC4)nc3)CC2)CN1c1ccc(C#N)c(Cl)c1 (stereo partly drawn)
< 1 nM

Provide value of DC50 for this record tested with AR (Homo sapiens): C[C@H]1CC2(CCN(c3ccc(CN4CCC(C5CCN(c6ccc7c(c6)C(=O)N(C6CCC(=O)NC6=O)C7=O)CC5)CC4)nc3)CC2)CN1c1ccc(C#N)c(Cl)c1 (stereo partly drawn)
< 1 nM

Now for a further compound.
Value wanted: DC50 (AR (Homo sapiens)) of entry C[C@H]1CC2(CCN(c3ccc(N4CCC(CN5Cc6cc7c(cc6C5)C(=O)N(C5CCC(=O)NC5=O)C7=O)CC4)nc3)CC2)CN1c1ccc(C#N)c(Cl)c1 (stereo partly drawn)
< 10 nM
